# Measured on: T1, soluble fusion protein comprising a DEC-205 extracellular domain (comprising all ten lectin-binding domains) … (human, UniProt O60449 28-1666)
# T1 construct: not shown: antibody Fc domain
# Experimental details: SPR (Biacore 2000), DEC-205 fusion protein amine-coupled to CM5 chip, antibody flowed at 1.25-200 nM, 1:1 Langmuir fit, mean of two series
Assay endpoint: Ka

>>> recorded_measurement("3D6-2F4 (antibody, V domains shown, Human IgG (kappa) from a hybridoma, protein A purified; also called mAb #5; HuMab 3D6-2F4) VH: QVQLVESGGGVVQPGRSLRLSCAASGFIFSIYGMHWVRQAPGKGLEWVAVIWYDGSNKYYADSVKGRFTISRDNSKNTLYLQMNSLRAEDTAVYYCARAPHFDYWGQGTLVTVSS VL: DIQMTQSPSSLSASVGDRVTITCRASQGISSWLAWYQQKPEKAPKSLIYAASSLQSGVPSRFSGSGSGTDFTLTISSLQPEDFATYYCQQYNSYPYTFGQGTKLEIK")
"1.5e+10 M⁻¹"
>>> recorded_measurement("3C7-3A3 (antibody, V domains shown, Human IgG (kappa) from a hybridoma, protein A purified; also called mAb #3; HuMab 3C7-3A3) VH: QVQLVESGGGVVQPGRSLRLSCAASGFTFSSYNMHWVRQAPGKGLEWVAFIWYDGSNKYYGDSVKGRFTISRDNSKNTLYLQMNSLRAEDTAVYYCAREELGIGWYFDLWGRGTLVTVSS VL: EIVLTQSPATLSLSPGERATLSCRASQSVSSYLAWYQQKPGQAPRLLIYDASNRATGIPARFSGSGSGTDFTLTISSLEPEDFAVYYCQQRRTFGQGTKVEIK")
"5.2e+08 M⁻¹"
>>> recorded_measurement("3G9-2D2 (antibody, V domains shown, Human IgG (kappa) from a hybridoma, protein A purified; also called mAb #8; HuMab 3G9-2D2) VH: QVQLVESGGGVVQPGRSLRLSCAASGFTFSNYGMYWVRQAPGKGLEWVAVIWYDGSNKYYADSVKGRFTISRDNSKNTLYLQMNSLRAEDTAVYYCARDLWGWYFDYWGQGTLVTVSS VL: EIVLTQSPATLSLSPGERATLSCRASQSVSSYLAWYQQKPGQAPRLLIYDASNRATGIPARFSGSGSGTDFTLTISSLEPEDFAVYYCQQRRNWPLTFGGGTKVEIK")
"4.7e+09 M⁻¹"
>>> recorded_measurement("5A8-1F1 (antibody, V domains shown, Human IgG (kappa) from a hybridoma, protein A purified; also called mAb #2; HuMab 5A8-1F1) VH: QVQLVESGGGVVQPGRSLRLSCAASGFTFSTYGMHWVRQAPGKGLEWVAIIWYDGGNKYYADSVKGRFTISRDNSKNTLYLQMNSLRAEDTAVYYCARDFYWYFDLWGRGTLVTVSS VL: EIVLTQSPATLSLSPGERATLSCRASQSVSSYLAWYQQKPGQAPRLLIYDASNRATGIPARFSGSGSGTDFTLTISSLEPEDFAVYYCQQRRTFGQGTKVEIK")
"2.1e+09 M⁻¹"
